Listed here are binders together with their documented EC50 hNPY2R 0.5% hP (CreLuc).
TARGET UNDER TEST: T1, NPY2 receptor (human (printed as hNPY2R), UniProt P49146 1-381)
T1 sequence (looked up): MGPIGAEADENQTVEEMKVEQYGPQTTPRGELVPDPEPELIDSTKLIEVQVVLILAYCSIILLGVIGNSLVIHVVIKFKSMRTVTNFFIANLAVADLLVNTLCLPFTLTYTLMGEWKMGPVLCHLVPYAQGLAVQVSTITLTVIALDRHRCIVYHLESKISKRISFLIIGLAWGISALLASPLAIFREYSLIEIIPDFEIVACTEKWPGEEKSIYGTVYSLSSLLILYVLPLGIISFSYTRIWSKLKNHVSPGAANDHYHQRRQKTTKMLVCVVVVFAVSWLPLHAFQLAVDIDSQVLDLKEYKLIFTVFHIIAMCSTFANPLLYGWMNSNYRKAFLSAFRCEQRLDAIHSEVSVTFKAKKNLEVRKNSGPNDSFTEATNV
TEST METHOD NOTES: cell-based or functional assay
Report only the number, with the unit µM understood.

Consider the worked cases shown below.
binder="YXEGTFTSDYSIXLEKQAQRAFVEWLIKGGPSSGASLRHYYNWLTRQRY (Aib at 2, 13; D-Arg at 20; K28 side chain carries C20DA-gGlu-gGlu-gGlu-gGlu-gGlu-gGlu-eLys; C-terminal amide) [Compound 216]" measure_unit=µM assay_value=0.00281
binder="YXEGTFTSDYSIXLEKQAQXEFVEWLIKGGPSSGASLRHYYNWLTRQRY (Aib at 2, 13, 20; K28 side chain carries C20DA-gGlu-gGlu-gGlu-gGlu-gGlu-gGlu-eLys; C-terminal amide) [Compound 215]" measure_unit=µM assay_value=0.0124

Query :: Looking for the measured EC50 hNPY2R 0.5% hP (CreLuc) of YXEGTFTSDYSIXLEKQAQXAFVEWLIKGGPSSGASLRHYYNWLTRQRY (Aib at 2, 13, 20; K28 side chain carries C20DA-gGlu-gGlu-gGlu-gGlu-gGlu; C-terminal amide) [Compound 238] , can you help?
Result :: 0.0116

meta.source: patent US20240247080A1
